Cited source: paper PMC9005681

The following molecules are shown together with reported Inhibition 4 values.
# study.system: cloned human or rodent CNS receptors, channels, and transporters (PDSP panel) (Homo sapiens, UniProt P35372)
# Construct: expressed in transfected cells
# Sequence (P35372 whole entry): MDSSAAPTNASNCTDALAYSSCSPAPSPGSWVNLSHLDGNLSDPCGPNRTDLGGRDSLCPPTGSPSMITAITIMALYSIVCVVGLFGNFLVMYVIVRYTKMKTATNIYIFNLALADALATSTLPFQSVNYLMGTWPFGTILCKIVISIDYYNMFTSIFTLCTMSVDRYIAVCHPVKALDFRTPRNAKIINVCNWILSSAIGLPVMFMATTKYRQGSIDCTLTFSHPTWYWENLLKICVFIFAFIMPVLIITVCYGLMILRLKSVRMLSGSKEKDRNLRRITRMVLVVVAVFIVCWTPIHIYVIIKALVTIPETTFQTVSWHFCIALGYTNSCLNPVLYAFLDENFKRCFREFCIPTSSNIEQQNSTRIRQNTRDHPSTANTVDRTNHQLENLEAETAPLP
# assay.overview: PDSP GPCR panel primary binding assays at 10 μM
# experimental.context: MOR; primary assay, replicate 4
reported.endpoint: Inhibition 4

[[record]]
molecule = "O=C(NC1CC1)C(=O)C(Cc1ccccc1)NC(=O)[C@H]1CCC(=O)N1Cc1ccccc1 (stereo partly shown) [UNC10302676A, ABT-957 (Alicapistat)]"
value_reported = "8.3%"

[[record]]
molecule = "CCC(=O)N1CCC(NC(=O)Nc2ccc(OC(F)(F)F)cc2)CC1 [UNC10302681A, TPPU]"
value_reported = "8.11%"

[[record]]
molecule = "CC(=O)N1CCC(NC(=O)NC23CC4CC(CC(C4)C2)C3)CC1 [UNC10302683A, AR9281]"
value_reported = "1.31%"

[[record]]
molecule = "CNc1nc(C)nc(N[C@H]2CCC[C@@H](C(=O)NCc3ccc(C#N)cc3C(F)(F)F)C2)n1 [UNC10302679A, GSK2256294A]"
value_reported = "-1.38%"

